# Measured on: ADP-ribosylation factor GTPase-activating protein 1 (Rattus norvegicus)
# Sequence (Q62848 whole entry): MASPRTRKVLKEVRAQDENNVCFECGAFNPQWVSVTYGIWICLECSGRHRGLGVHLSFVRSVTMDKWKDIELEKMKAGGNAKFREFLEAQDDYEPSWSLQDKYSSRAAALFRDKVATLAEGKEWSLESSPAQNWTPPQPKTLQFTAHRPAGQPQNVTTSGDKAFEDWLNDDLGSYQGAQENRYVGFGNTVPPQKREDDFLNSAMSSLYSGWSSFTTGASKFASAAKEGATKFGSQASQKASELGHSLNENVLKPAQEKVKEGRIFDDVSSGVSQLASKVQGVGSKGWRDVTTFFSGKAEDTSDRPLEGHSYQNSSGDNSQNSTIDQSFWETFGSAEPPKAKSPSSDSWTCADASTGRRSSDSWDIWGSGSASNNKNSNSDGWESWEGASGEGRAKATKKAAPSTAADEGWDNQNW
# Assay summary: Fluorescence polarization-based biochemical high throughput dose response screening assay to identify inhibitors of ADP-ribosylation factor GTPase activating protein 1 (ARFGAP1).
# Type: functional
Calls of active or inactive are those of the source.
Measure: IC50

// field: IC50; key: COC(=O)c1ccc(Nc2nc(-c3ccncc3)nc3ccccc23)cc1 ; value = 98.4 µM (inactive)

In plain terms, O=C(Nc1ccc(-c2cc3ccccc3oc2=O)c(Cl)c1)c1cccnc1 has a documented IC50 of 17.9 µM (inactive)

For record Cc1cc(C(=O)COC(=O)c2[nH]nc3ccccc23)c(C)n1C the listed IC50 is 32.4 µM (inactive)

Field IC50 (entry O=C(COc1ccc2oc(-c3ccco3)cc(=O)c2c1)N1CCCCC1 ) reads 28.5 µM (inactive)

----------
Please respond with reported EC50 for every item in the list.
# Measured on: Protein RecA (Mycobacterium tuberculosis)
# Sequence (P9WHJ3 whole entry): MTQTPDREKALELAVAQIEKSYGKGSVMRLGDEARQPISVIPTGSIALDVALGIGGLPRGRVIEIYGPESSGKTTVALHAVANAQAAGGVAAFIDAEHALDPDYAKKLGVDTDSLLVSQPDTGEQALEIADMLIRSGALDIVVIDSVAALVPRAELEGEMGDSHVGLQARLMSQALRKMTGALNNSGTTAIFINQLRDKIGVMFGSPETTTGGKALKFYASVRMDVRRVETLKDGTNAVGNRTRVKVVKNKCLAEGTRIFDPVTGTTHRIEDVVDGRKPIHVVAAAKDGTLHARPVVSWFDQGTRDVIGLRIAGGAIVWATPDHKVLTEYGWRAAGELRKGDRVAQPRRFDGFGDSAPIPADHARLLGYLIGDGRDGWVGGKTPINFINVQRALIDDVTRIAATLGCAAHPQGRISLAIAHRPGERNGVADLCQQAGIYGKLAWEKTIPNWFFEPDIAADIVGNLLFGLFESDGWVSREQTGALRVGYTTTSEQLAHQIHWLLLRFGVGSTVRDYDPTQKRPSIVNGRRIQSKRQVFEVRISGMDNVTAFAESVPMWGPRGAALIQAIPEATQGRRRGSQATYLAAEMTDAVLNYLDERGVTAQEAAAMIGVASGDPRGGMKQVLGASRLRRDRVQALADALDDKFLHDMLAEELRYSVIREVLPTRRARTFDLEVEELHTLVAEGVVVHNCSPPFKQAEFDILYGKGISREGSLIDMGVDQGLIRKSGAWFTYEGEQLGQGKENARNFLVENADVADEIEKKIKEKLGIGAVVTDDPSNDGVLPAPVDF
# Assay summary: Fluorescence Cell-Free Homogeneous Dose Retest to Identify Inhibitors of RecA-Intein Splicing Activity. [Related pubchem assays (depositor defined):AID2097, AID2223, AID489010, AID492950]
# Type: functional
Calls of active or inactive are those of the source.

So, CCOc1cc(/C=C2\C(=O)N(c3ccc(C(N)=O)cc3)N=C2C)ccc1OC(=O)c1cccs1 ? Its EC50 was 1.93 µM (active)

get_value(item= O=C(Nc1ccccc1N(C(=O)c1ccco1)S(=O)(=O)c1cccs1)c1ccco1 , readout=EC50) returns 8.58 µM (active)

Please fill in: EC50 reported for Cc1n[nH]c(O)c1C(c1ccc([N+](=O)[O-])cc1)c1c(C)n[nH]c1O = 0.27 µM (active)

Record COc1ccc(C(c2c(C)n[nH]c2O)c2c(C)n[nH]c2O)cc1Br , field EC50: 0.289 µM (active)

Per the records, this molecule ( CCOC(=O)C1(CCOc2ccccc2)CCN(Cc2ccc(O)c(Cl)c2)CC1 ) has EC50 equal to > 380 µM (inactive)

Recorded EC50 (molecule CCCCC[C@H](O)/C=C/[C@@H]1[C@@H](C/C=C\CCCC(=O)OC)[C@@H](O)C[C@H]1O ): 12.2 µM (active)
